- target-of-assay: c-Abl (His-tagged recombinant human ABL1) (Homo sapiens (Human))
- Sequence (P00519 whole entry): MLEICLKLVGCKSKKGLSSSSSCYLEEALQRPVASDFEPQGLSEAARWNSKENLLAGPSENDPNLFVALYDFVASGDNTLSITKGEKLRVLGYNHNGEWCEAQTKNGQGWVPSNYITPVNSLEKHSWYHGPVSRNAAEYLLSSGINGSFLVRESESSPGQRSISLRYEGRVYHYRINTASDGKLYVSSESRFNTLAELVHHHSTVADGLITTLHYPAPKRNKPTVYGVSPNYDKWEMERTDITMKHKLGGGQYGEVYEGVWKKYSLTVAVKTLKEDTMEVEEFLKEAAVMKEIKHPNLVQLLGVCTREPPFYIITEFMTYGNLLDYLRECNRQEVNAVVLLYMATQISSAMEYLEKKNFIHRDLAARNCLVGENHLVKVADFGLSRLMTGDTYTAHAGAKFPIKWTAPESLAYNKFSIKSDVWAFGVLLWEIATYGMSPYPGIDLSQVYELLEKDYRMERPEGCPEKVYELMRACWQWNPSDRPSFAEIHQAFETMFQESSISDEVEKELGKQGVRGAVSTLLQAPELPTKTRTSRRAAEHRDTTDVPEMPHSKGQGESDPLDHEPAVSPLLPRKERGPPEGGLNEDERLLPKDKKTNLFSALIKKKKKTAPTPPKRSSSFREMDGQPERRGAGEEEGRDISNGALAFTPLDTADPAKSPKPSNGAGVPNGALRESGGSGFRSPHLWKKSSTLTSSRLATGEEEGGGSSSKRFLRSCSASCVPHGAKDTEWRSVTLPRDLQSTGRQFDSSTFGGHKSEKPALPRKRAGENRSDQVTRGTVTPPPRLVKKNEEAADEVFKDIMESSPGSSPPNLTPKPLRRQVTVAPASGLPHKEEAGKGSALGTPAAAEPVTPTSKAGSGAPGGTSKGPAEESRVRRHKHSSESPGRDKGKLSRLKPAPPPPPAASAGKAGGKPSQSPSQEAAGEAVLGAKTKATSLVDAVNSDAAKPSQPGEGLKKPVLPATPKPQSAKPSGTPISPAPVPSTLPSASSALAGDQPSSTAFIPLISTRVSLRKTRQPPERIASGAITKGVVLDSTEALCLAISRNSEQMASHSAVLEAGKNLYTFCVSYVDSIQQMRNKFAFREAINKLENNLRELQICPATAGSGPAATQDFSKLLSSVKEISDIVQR
- assay-summary: c-abl Kinase Assay (ADP-Glo)
- stated-conditions: ATP (25 μM), Abltide substrate
pIC50: −log10 of the molar value.
attribute-measured: pIC50

O=C(Nc1cn2cc(-c3cnccc3C(F)(F)F)ccc2n1)[C@@H]1C[C@@H]1F [Example 31] : 6.00 to 7.00
Cc1cccc(F)c1-c1ccc2nc(NC(=O)[C@@H]3C[C@@H]3F)c(C)n2c1 [Example 9] : 7.00 to 8.00
Cc1ccc(C#N)cc1-c1ccc2nc(NC(=O)[C@@H]3C[C@@H]3F)cn2c1 [Example 17] : > 8.00

q: Quick one: pIC50 of Cc1ccc2ocnc2c1-c1ccc2nc(NC(=O)[C@@H]3C[C@@H]3F)cn2c1 [Example 102] ?
a: > 8.00

q: Next up: CNc1ccc(C)c(-c2ccc3nc(NC(=O)[C@@H]4C[C@@H]4F)cn3c2)c1 [Example 24]
a: > 8.00

q: Now the molecule Cc1cc(F)ncc1-c1ccc2nc(NC(=O)[C@@H]3C[C@@H]3F)cn2c1 [Example 67]
a: 7.00 to 8.00

q: Then what about the molecule Cc1c(F)cncc1-c1ccc2nc(NC(=O)[C@@H]3C[C@@H]3F)cn2c1 [Example 14] ?
a: > 8.00

q: Can you check Cc1ccc(Cl)cc1-c1ccc2nc(NC(=O)[C@@H]3C[C@@H]3F)cn2c1 [Example 26] next?
a: > 8.00

====

Reported values of IC50 for individual entries
- target-of-assay: LRRK2 G2019S (Homo sapiens (Human), UniProt Q5S007, G2019S)
- Sequence (Q5S007 whole entry G2019S): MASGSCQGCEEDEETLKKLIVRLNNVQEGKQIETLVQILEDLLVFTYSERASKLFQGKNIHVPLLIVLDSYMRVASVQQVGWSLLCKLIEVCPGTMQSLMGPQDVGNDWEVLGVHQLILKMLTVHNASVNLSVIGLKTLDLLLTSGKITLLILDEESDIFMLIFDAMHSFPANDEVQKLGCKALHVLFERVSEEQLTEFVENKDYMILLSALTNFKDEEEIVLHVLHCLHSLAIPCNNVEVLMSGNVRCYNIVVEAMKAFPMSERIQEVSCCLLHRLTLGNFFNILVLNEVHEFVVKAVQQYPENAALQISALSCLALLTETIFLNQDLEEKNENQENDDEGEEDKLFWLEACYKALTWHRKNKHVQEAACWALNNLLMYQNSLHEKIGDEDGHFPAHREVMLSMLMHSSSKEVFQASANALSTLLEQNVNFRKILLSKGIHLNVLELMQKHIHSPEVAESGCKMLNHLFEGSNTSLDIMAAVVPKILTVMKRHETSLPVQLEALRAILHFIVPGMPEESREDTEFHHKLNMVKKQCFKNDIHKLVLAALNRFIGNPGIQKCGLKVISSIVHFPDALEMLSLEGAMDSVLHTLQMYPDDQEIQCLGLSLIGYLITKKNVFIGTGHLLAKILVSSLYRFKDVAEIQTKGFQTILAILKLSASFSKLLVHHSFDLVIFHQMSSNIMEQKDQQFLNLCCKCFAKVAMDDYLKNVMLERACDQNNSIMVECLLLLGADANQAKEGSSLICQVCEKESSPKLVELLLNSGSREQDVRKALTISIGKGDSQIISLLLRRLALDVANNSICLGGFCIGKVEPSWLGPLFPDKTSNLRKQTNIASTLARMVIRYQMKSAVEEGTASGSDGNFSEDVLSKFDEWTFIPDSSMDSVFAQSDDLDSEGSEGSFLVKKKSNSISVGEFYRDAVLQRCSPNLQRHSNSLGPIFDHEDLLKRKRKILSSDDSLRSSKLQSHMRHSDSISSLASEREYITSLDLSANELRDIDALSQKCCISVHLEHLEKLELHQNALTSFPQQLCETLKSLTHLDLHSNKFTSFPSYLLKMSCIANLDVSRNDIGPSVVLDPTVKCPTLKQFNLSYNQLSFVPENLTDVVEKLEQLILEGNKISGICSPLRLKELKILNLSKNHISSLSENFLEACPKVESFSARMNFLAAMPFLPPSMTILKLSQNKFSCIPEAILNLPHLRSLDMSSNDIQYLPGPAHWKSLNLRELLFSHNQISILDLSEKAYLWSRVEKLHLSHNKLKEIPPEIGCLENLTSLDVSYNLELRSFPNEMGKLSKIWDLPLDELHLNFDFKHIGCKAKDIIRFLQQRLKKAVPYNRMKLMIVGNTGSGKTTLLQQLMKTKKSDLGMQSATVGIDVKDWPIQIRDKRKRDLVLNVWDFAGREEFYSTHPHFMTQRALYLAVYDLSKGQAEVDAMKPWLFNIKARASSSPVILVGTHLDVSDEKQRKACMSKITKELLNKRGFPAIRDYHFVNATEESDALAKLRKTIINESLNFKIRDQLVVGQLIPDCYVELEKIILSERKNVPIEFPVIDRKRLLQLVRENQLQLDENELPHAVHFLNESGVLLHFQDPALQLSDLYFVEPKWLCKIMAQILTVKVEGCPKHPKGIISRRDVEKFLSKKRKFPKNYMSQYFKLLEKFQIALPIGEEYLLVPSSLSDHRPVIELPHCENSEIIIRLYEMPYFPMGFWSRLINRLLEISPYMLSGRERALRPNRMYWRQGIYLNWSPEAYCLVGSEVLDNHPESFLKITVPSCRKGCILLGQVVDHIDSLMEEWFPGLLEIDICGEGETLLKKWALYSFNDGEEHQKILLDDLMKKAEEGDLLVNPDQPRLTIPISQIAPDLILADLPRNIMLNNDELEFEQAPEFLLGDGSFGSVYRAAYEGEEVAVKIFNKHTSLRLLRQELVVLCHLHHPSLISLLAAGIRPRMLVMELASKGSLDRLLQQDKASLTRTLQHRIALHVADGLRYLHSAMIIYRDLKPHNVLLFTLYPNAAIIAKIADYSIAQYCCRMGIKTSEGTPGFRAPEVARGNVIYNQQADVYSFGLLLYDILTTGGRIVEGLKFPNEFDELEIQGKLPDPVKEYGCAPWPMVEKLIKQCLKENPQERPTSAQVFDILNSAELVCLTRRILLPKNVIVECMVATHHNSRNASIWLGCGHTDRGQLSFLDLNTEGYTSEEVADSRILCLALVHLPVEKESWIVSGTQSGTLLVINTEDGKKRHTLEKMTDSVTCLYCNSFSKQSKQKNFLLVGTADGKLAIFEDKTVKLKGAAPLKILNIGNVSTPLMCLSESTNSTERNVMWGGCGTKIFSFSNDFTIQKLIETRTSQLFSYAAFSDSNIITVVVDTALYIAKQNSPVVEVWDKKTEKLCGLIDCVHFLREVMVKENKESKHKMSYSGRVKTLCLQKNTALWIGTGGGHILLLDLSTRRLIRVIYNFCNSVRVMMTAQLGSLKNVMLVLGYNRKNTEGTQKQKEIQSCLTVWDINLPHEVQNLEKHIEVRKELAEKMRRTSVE
- assay-summary: LRRK2 G2019S Kinase Assay (Adapta)
- stated-conditions: 100 μM ATP, LRRKtide substrate; read-out: LRRK2_G2019S IC50
Structures can show the parent of a compound that is named as a salt.

Completed entries (count: 5):
Cc1c(F)cccc1-c1ccc2nc(NC(=O)C3CCC3)cn2c1 [Example 76] : 10 to 100 nM
Cc1cc(F)cc(C)c1-c1ccc2nc(NC(=O)[C@@H]3C[C@@H]3F)cn2c1 [Example 38] : 101 to 1000 nM
Cc1ccncc1-c1ccc2nc(NC(=O)[C@@H]3C[C@@H]3F)c(Cl)n2c1 [Example 7] : > 1000 nM
O=C(Nc1cn2cc(-c3cccc(F)c3-c3ccco3)ccc2n1)[C@@H]1C[C@@H]1F [Example 65] : > 1000 nM
Cc1c(F)cccc1-c1ccc2nc(NC(=O)[C@@H]3C[C@@H]3F)cn2c1 [Example 1, Hydrochloride] : 10 to 100 nM

q: Look up IC50: N#Cc1ccncc1-c1ccc2nc(NC(=O)[C@@H]3C[C@@H]3F)cn2c1 [Example 36]
a: 101 to 1000 nM

q: Try this molecule too: Cc1cc(F)ccc1-c1ccc2nc(NC(=O)[C@@H]3C[C@@H]3F)cn2c1 [Example 39]
a: 10 to 100 nM

q: Queued: Cc1c(Cl)cccc1-c1ccc2nc(NC(=O)[C@@H]3C[C@@H]3F)cn2c1 [Example 30]
a: 101 to 1000 nM

====

Below: a set of entries, each annotated with reported IC50.
- target-of-assay: LRRK2 G2019S (Homo sapiens (Human), UniProt Q5S007, G2019S)
- assay-summary: LRRK2 G2019S Kinase Assay (Adapta)
- stated-conditions: 100 μM ATP, LRRKtide substrate; read-out: LRRK2_G2019S IC50

Worked cases, answers included:
CC(=O)c1c(F)cccc1-c1ccc2nc(NC(=O)[C@@H]3C[C@@H]3F)cn2c1 : > 1000 nM
Cc1ccnc(F)c1-c1ccc2nc(NC(=O)[C@@H]3C[C@@H]3F)cn2c1 : 10 to 100 nM
Cc1cc(Cl)ccc1-c1ccc2nc(NC(=O)[C@@H]3C[C@@H]3F)cn2c1 : 101 to 1000 nM

q: Requested field: IC50. Item: `CC(=O)Nc1ccc(C)c(-c2ccc3nc(NC(=O)[C@@H]4C[C@@H]4F)cn3c2)c1`
a: 101 to 1000 nM

q: Now this one: `COCCOCc1c(F)cccc1-c1ccc2nc(NC(=O)[C@@H]3C[C@@H]3F)cn2c1`
a: 101 to 1000 nM

q: Then `Cc1ccc(-c2cc[nH]c2)cc1-c1ccc2nc(NC(=O)[C@@H]3C[C@@H]3F)cn2c1` ?
a: 10 to 100 nM

q: Param item: Cc1c(F)cccc1-c1ccc2nc(NC(=O)[C@H]3C[C@H]3F)cn2c1 (stereo in doubt)
a: 10 to 100 nM

q: What do we get for `Cc1ccncc1-c1ccc2nc(NC(=O)[C@@H]3C[C@@H]3F)cn2c1` ?
a: 101 to 1000 nM
